Hey, just so you know, these numbers are from patent US10376480B2.

test system: 5′-AMP-activated protein kinase (AMPK); test: AMPK activation (AMPKα Thr172 phosphorylation immunoassay) in MCF7 cells; type: cell-based, human; conditions: 50 μM compound, MCF7 cells, 24 hours
Measured attribute: AMPK Activation (phosphorylated AMPKα Thr172)
Response field accepts a number only; no unit should be typed.

CCC(C)NC(=N)NC(=N)N(C)C.Cl (centres unmarked)
3.6

Query: Report measured AMPK Activation (phosphorylated AMPKα Thr172); entry is `Cl.N=C(NCCc1ccccc1)NC(=N)NC1CCCCCC1`
Response: 7.0

###

Each record here notes measured pIC50.
system: HCT116 cells; assay: Inhibition of cancer cell proliferation (MTT, GIC50); assay type: cell-based; settings: Homo sapiens, HCT-116, 48 hours incubation
pIC50: −log10 of the molar value.

Reference set, count: 8
CCCCCNC(=N)NC(=N)N(C)C.Cl [Example 21, Hydrochloride]
< 3.70
CN(C)C(=N)NC(=N)Nc1ccc(Br)cc1.Cl [Example 25, Hydrochloride]
< 4.00
CCCN(CCC)C(=N)NC(=N)N(c1ccccc1)c1ccc(O)cc1.Cl [Example 39, Hydrochloride]
< 4.00
CCCN(CCC)C(=N)NC(=N)Nc1cccc(Cl)c1.Cl [Example 31, Hydrochloride]
5.12
CCN(CC)C(=N)NC(=N)Nc1cccc(Cl)c1.Cl [Example 30, Hydrochloride]
4.55
CN(C)C(=N)NC(=N)NCCc1ccccc1.Cl [Example 29, Hydrochloride]
< 3.70
COc1ccc(NC(=N)NC(=N)Nc2ccc(OC)c(Cl)c2)cc1Cl.Cl [Example 8, Hydrochloride]
4.77
CN(C)C(=N)NC(=N)NC1CCCCCC1.Cl [Example 23, Hydrochloride]
< 3.70

Moving on to another compound below.
Query: Tell me measured pIC50 for CCC(C)NC(=N)NC(=N)N(C)C.Cl (stereo not drawn) [Example 19, Hydrochloride] please.
Response: < 3.70

###

Tested on: 5′-AMP-activated protein kinase (AMPK)
Experiment: AMPK activation (AMPKα Thr172 phosphorylation immunoassay) in MCF7 cells
Format: cell-based, human
Settings: 50 μM compound, MCF7 cells, 24 hours
Protocol: MCF7 cells derived from human breast cancer cells were used, and an effect of a biguanide derivative on 5′-AMP-activated protein kinase (AMPK) activation was confirmed using an AMPKα immunoassay kit (Invitrogen, catalog No. KHO0651). The MCF7 cells were put on a 6-well plate and incubated in a DMEM medium containing 10% fetal bovine serum in an incubator to which 5% CO2 was supplied to have a cell count of approximately 5×10^5. […]
Please mark Condition met if the recorded AMPK Activation (phosphorylated AMPKα Thr172) is equal to or greater than 9, and Condition not met if it falls below.

Record excerpt, results attached:
CCN(CC)C(=N)NC(=N)N(C)C1CCCCC1.Cl
Condition not met
Cl.N=C(NCCc1ccccc1)NC(=N)NCC1CC1
Condition met
CN(C)C(=N)NC(=N)NC1CCCCCC1.Cl
Condition not met

Query: Decide: is the reported value of AMPK Activation (phosphorylated AMPKα Thr172) for `CCCN(CCC)C(=N)NC(=N)N(c1ccccc1)c1ccc(O)cc1.Cl` equal to or greater than 9?
Response: Condition met

###

system: 5′-AMP-activated protein kinase (AMPK); assay: AMPK activation (AMPKα Thr172 phosphorylation immunoassay) in MCF7 cells; format: cell-based, human; details: 50 μM compound, MCF7 cells, 24 hours
Measured attribute: AMPK Activation (phosphorylated AMPKα Thr172)
Number only, no unit.

Consider the reported AMPK Activation (phosphorylated AMPKα Thr172) for these compounds:
COC(=O)CCNC(=N)NC(=N)N(C)C.Cl [Example 22]
3.2
CCN(CC)C(=N)NC(=N)Nc1cccc(Cl)c1.Cl [Example 30]
19.3

Query: Assign AMPK Activation (phosphorylated AMPKα Thr172) to the following record: CN(C)C(=N)NC(=N)NCc1ccccc1.Cl [Example 28]
Response: 5.9

Query: Give the value of AMPK Activation (phosphorylated AMPKα Thr172) reported for the following: Cl.N=C(NCc1ccccc1)NC(=N)NCc1cccnc1 [Example 12]
Response: 7.8

###

AMPK Activation (phosphorylated AMPKα Thr172) values by entry
tested on: 5′-AMP-activated protein kinase (AMPK); assay: AMPK activation (AMPKα Thr172 phosphorylation immunoassay) in MCF7 cells; assay type: cell-based, human; settings: 50 μM compound, MCF7 cells, 24 hours
Please reply with the number alone, leaving off any unit.

CCCN(CCC)C(=N)NC(=N)Nc1cccc2cnccc12.Cl [Example 33]
11.3
CCCN(CC)C(=N)NC(=N)Nc1ccc(Cl)cc1.Cl [Example 32]
5.2
CCCCCCNC(=N)NC(=N)NCC1CCCCC1.Cl [Example 3]
13.1

With those in mind, consider the next compound.
Query: Give 5′-AMP-activated protein kinase (AMPK) AMPK Activation (phosphorylated AMPKα Thr172) for the following compound: CN(C)C(=N)NC(=N)Nc1ccc(Br)cc1.Cl [Example 25]
Response: 23.1

###

Measured attribute: melting point

Please review the following examples before continuing.
CN(C)C(=N)NC(=N)NCc1ccccc1.Cl
151 to 152 °C
CN(C)C(=N)NC(=N)NCc1cccnc1.Cl
112 to 114 °C
CCN(CC)C(=N)NC(=N)Nc1cccc(Cl)c1.Cl
219 to 220 °C
CN(C)C(=N)NC(=N)NC1CCCCCC1.Cl
132 to 133 °C
Cl.N=C(NC(=N)Nc1ccc(Cl)c(Cl)c1)Nc1ccc(Cl)c(Cl)c1
255 to 257 °C
CCCN(CCC)C(=N)NC(=N)N(CC)CC.Cl
151 to 152 °C

Let us move to another entry and its melting point.
Query: Annotate the molecule `Cl.N=C(NCc1ccccc1)NC(=N)NCc1cccnc1` with its measured melting point.
Response: 138 to 140 °C

###

tested on: 5′-AMP-activated protein kinase (AMPK); test: AMPK activation (AMPKα Thr172 phosphorylation immunoassay) in MCF7 cells; type: cell-based, human; conditions: Homo sapiens, 24 h; 50 μM vs. 0 (cells without compound), MCF7 cells
Give y when the value for fold induction at 50 µM is at least 2. Give n when it is less.

CCCN(CC)C(=N)NC(=N)Nc1ccc(Cl)cc1.Cl [Example 32, Hydrochloride]
n
CCCCCCNC(=N)NC(=N)NCCC.Cl [Example 1, Hydrochloride]
y
Cl.N=C(NCCc1ccccc1)NC(=N)NCC1CC1 [Example 14, Hydrochloride]
y
CNC(=N)NC(=N)N(C)C.Cl [Example 17, Hydrochloride]
n
Cl.N=C(NCc1ccccc1)NC(=N)NCc1cccnc1 [Example 12, Hydrochloride]
n

Query: Hi, just wondering whether CCCCNC(=N)NC(=N)N(C)C.Cl [Example 18, Hydrochloride] shows fold induction at 50 µM of 2 or higher.
Response: n

Query: Is the recorded value of fold induction at 50 µM equal to or greater than 2 for this molecule? CN(C)C(=N)NC(=N)NCCc1ccccc1.Cl [Example 29, Hydrochloride]
Response: y

Query: Hi team, for CCCN(CCC)C(=N)NC(=N)N(c1ccccc1)c1ccc(O)cc1.Cl [Example 39, Hydrochloride] , is the recorded fold induction at 50 µM at or above 2?
Response: y

Query: Quick check: does CCCCCNC(=N)NC(=N)N(C)C.Cl [Example 21, Hydrochloride] have fold induction at 50 µM greater than or equal to 2?
Response: n

Query: Threshold query (fold induction at 50 µM >= 2) on CN(C)C(=N)NC(=N)NC(C)(C)C.Cl [Example 20, Hydrochloride]
Response: n

Query: State whether the measured fold induction at 50 µM reaches 2, counting equality as reaching it, for CCN(CC)C(=N)NC(=N)Nc1cccc(Cl)c1.Cl [Example 30, Hydrochloride]
Response: y

Query: Answer whether fold induction at 50 µM of CN(C)C(=N)NC(=N)NC1CCCCCC1.Cl [Example 23, Hydrochloride] is greater than or equal to 2.
Response: n

Query: Exam item: decide whether the reported fold induction at 50 µM for Cl.N=C(NCCc1ccccc1)NC(=N)NC1CCCCCC1 [Example 15, Hydrochloride] is at least 2.
Response: n

Query: Please tell me: is the molecule CN(C)C(=N)NC(=N)Nc1ccc(Br)cc1.Cl [Example 25, Hydrochloride] at or over 2 in terms of fold induction at 50 µM?
Response: y

###

test system: 5′-AMP-activated protein kinase (AMPK); assay: AMPK activation (AMPKα Thr172 phosphorylation immunoassay) in MCF7 cells; assay type: cell-based, human; conditions: 50 μM compound, MCF7 cells, 24 hours
Label fulfilled when AMPK Activation (phosphorylated AMPKα Thr172) >= 10; otherwise not fulfilled.

Reference set (5 entries):
CN(Cc1ccccc1)C(=N)NC(=N)N(C)Cc1ccccc1.Cl
fulfilled
Cl.N=C(NCCc1ccccc1)NC(=N)NCCc1ccccc1
not fulfilled
CCCCCCNC(=N)NC(=N)NCCC.Cl
fulfilled
CCCCCCNC(=N)NC(=N)NCc1ccccc1.Cl
fulfilled
CN(C)C(=N)NC(=N)NCCc1ccccc1.Cl
fulfilled

Query: Would you say `CCCCNC(=N)NC(=N)N(C)C.Cl` shows AMPK Activation (phosphorylated AMPKα Thr172) at minimum 10?
Response: not fulfilled

Query: Textbook exercise: given the entry `CCCN(CCC)C(=N)NC(=N)N(C)CCc1ccccc1.Cl` , state whether its AMPK Activation (phosphorylated AMPKα Thr172) is greater than or equal to 10.
Response: fulfilled

Query: Is the recorded value of AMPK Activation (phosphorylated AMPKα Thr172) equal to or greater than 10 for this molecule? `CN(C)C(=N)NC(=N)NCC1CC1.Cl`
Response: not fulfilled

Query: Does AMPK Activation (phosphorylated AMPKα Thr172) meet or surpass 10 for `CCCCCNC(=N)NC(=N)N(C)C.Cl` ?
Response: not fulfilled
